target-entity: mTORC1 (Homo sapiens, UniProt P42345)
Construct: mTORC1 was isolated by co-immunoprecipitation using Flag antibody
protocol-notes: In vitro mTORC1 kinase assay (GST-S6K Thr389 phosphorylation, immunoblot)
measurement-parameters: in vitro mTORC1 kinase assay
Experimental: In order to investigate the effect on mTORC1 activity of norathyriol, in vitro mTORC1 kinase assay was performed. After introducing Flag-Raptor into a human cell line 293T, mTORC1 was isolated by co-immunoprecipitation using Flag antibody. In addition, the activity of the isolated mTORC1 complex was evaluated by measuring phosphorylation of GST-S6K Thr389, which is a selective substrate of mTORC1, by immunoblot analysis. […]
recorded-endpoint: IC50

Provide only the value of recorded IC50 for O=c1c2cc(O)c(O)cc2oc2cc(O)cc(O)c12 [norathyriol, 1,3,6,7-tetrahydroxy-9H-xanthen-9-one] > 80 µM

###

target-entity: mTORC2 (Homo sapiens)
protocol-notes: LocaTOR2 assay in A549 cells (FRB-AKT2 Ser473 phosphorylation)
Type: cell-based
Parameters: endogenous in cells; host or cells: A549 (transfected only with the FKBP-recruiter and the FRB-AKT2 reporter)
measurement-parameters: mTORC2 located in recycling endosome; FIG. 9g; read-out: IC50, mTORC2, RE
From the text: mTORC2 is located in the cell membrane, endosome, ER and mitochondrial membrane. mTORC2 forms an mTORC2 complex as an activated form of ras (ras-GTP) operates as a scaffold in the cell membrane, whereas it forms an mTORC2 complex as mLST8 operates as a scaffold in the endosome. By this difference, the mTORC2 inhibitory effect of norathyriol may be shown differently depending on the subcellular compartment where mTORC2 is located. […]
recorded-endpoint: pIC50
Please keep in mind that pIC50 is minus log10 of the molar concentration; only the number is needed.

Provide only the value of recorded pIC50 for O=c1c2cc(O)c(O)cc2oc2cc(O)cc(O)c12 [norathyriol, 1,3,6,7-tetrahydroxy-9H-xanthen-9-one] 4.40

###

target-entity: mTORC2 (Homo sapiens)
protocol-notes: In vitro mTORC2 kinase assay (GST-Akt Ser473 phosphorylation, immunoblot)
Assay type: biochemical
Parameters: mTORC was isolated by co-immunoprecipitation using Flag antibody; made in house; host or cells: HEK 293T transfected with Flag-mLST8
measurement-parameters: in vitro mTORC2 kinase assay
Description: After introducing Flag-mLST8 into a human cell line 293T, mTORC was isolated by co-immunoprecipitation using Flag antibody. In the in vitro mTORC2 kinase assay, the activity of the isolated mTORC2 was evaluated by measuring phosphorylation of GST-Akt Ser473, which is a selective substrate of mTORC2 by immunoblot analysis. In the control group in which Flag-mLST8 was not introduced, GST-Akt Ser473 phosphorylation was almost not measured. […]
recorded-endpoint: IC50 (µM)
Answer with a number only, understood to be in µM.

Provide only the value of recorded IC50 for O=c1c2cc(O)c(O)cc2oc2cc(O)cc(O)c12 [norathyriol, 1,3,6,7-tetrahydroxy-9H-xanthen-9-one] 40
